Origin of the recorded values: the supplement of paper PMC9925115

System: FLX1
experimentSummary: cell viability z-score within plate (CellTiter-Glo), mean of 3 biological replicates; higher = higher viability relative to plate (less growth inhibition)
measurementParameters: 2 µM; time (hr): 120

{"columns": ["compound", "cell viability z-score within plate"],
 "data": [
  ["C#Cc1cccc(Nc2ncnc3cc(OCCOC)c(OCCO)cc23)c1", -0.584],
  ["CN(C)CCCn1cc(C2=C(c3c[nH]c4ccccc34)C(=O)NC2=O)c2ccccc21", -0.651],
  ["CC1(COc2ccc3c(c2)ncn3-c2ccc3cccc(N4CCC(N)CC4)c3n2)COC1", 0.0444],
  ["CO[C@H]1C[C@@H]2CC[C@@H](C)[C@@](O)(O2)C(=O)C(=O)N2CCCC[C@H]2C(=O)O[C@H]([C@H](C)C[C@@H]2CC[C@@H](OP(C)(C)=O)[C@H](OC)C2)CC(=O)[C@H](C)/C=C(\\C)[C@@H](O)[C@@H](OC)C(=O)[C@H](C)C[C@H](C)/C=C/C=C/C=C/1C [Ridaforolimus (Deforolimus, MK-8669)]", -0.102],
  ["C=CC(=O)Nc1cccc(Nc2nc(Nc3ccc(N4CCN(C(C)=O)CC4)cc3OC)ncc2C(F)(F)F)c1 [Rociletinib (CO-1686, AVL-301)]", -0.855],
  ["Cc1cnc(Nc2ccc(OCCN3CCCC3)cc2)nc1Nc1cccc(S(=O)(=O)NC(C)(C)C)c1", -0.235],
  ["N#CCNC(=O)c1ccc(-c2ccnc(Nc3ccc(N4CCOCC4)cc3)n2)cc1 [Momelotinib (CYT387)]", -1.97]
]}

---

System: FLX1 + dox-induced PRKAR1A G325D
experimentSummary: difference in log2 fold change of viability vs plate median (dox-induced PRKAR1A G325D minus uninduced); higher = compound less effective when PKA is inhibited
measurementParameters: concentration: not stated (2 or 5 uM); 5 days
Parameter difference in log2 fold change of viability: see the listing below.
parameter: difference in log2 fold change of viability

{"columns": ["compound", "targetDesc", "result"],
 "data": [
  ["CCOc1cc(N2CCC(O)CC2)ccc1Nc1ncc2c(n1)N(C)c1ccccc1C(=O)N2C", "FLX1 + dox-induced PRKAR1A G325D", 0.697],
  ["CS(=O)(=O)CCNCc1ccc(-c2ccc3ncnc(Nc4ccc(OCc5cccc(F)c5)c(Cl)c4)c3c2)o1", "FLX1 + dox-induced PRKAR1A G325D", 0.129],
  ["C=CC(=O)Nc1cccc(Oc2nc(Nc3ccc(N4CCN(C)CC4)cc3)ncc2Cl)c1", "FLX1 + dox-induced PRKAR1A G325D", -0.131],
  ["CC(C)n1nc(-c2cc3cc(O)ccc3[nH]2)c2c(N)ncnc21", "FLX1 + dox-induced PRKAR1A G325D", 0.611],
  ["O=c1ccc2ccc(O)c(O)c2o1", "FLX1 + dox-induced PRKAR1A G325D", -0.062],
  ["CNC(=O)c1cccc(-c2ccc3c(N4CCOC[C@@H]4C)nc(N4CCOC[C@@H]4C)nc3n2)c1", "FLX1 + dox-induced PRKAR1A G325D", 0.675],
  ["CC(C)(C)c1cc(NC(=O)Nc2ccc(-c3cn4c(n3)sc3cc(OCCN5CCOCC5)ccc34)cc2)no1", "FLX1 + dox-induced PRKAR1A G325D", 0.254],
  ["Cc1cc(CS(=O)(=O)c2ccccc2)cc(OCc2ccc(CN3CCC[C@@H]3CO)cc2)c1", "FLX1 + dox-induced PRKAR1A G325D", 0.461],
  ["Cc1[nH]c(/C=C2\\C(=O)Nc3ccccc32)c(C)c1CCC(=O)O [Orantinib (TSU-68, SU6668)]", "FLX1 + dox-induced PRKAR1A G325D", 0.216],
  ["Cc1cnc(NC(=O)Nc2cc(Br)c(C)cc2OC[C@@H]2CNCCO2)cn1", "FLX1 + dox-induced PRKAR1A G325D", 1.29],
  ["N#Cc1c(NC(=O)c2cccc3ccccc23)sc2c1CCCC2", "FLX1 + dox-induced PRKAR1A G325D", 0.317],
  ["COc1cc2c(Oc3ccc4[nH]c(C)cc4c3F)ncnc2cc1OCCCN1CCCC1", "FLX1 + dox-induced PRKAR1A G325D", 0.58],
  ["Cc1c(NC(=O)c2ccc(C(C)(C)C)cc2)cccc1-c1cn(C)c(=O)c(Nc2ccc(C(=O)N3CCOCC3)cc2)n1", "FLX1 + dox-induced PRKAR1A G325D", 0.119],
  ["COC(=O)Nc1ccc(-c2nc(N3CCOCC3)c3cnn(C4CCN(C(=O)OC)CC4)c3n2)cc1", "FLX1 + dox-induced PRKAR1A G325D", 0.71],
  ["CNc1nc(-c2ccc3c(N)n[nH]c3c2)cc(N2C[C@@H](C(=O)NC3CCCCC3)CC[C@H]2C)n1", "FLX1 + dox-induced PRKAR1A G325D", 0.221],
  ["CNC(=O)c1nn(C)c2c1C(C)(C)Cc1cnc(Nc3ccc(N4CCN(C)CC4)cc3)nc1-2", "FLX1 + dox-induced PRKAR1A G325D", 0.64],
  ["CCN1CCN(Cc2ccc(-c3cc4c(N[C@H](C)c5ccccc5)ncnc4[nH]3)cc2)CC1", "FLX1 + dox-induced PRKAR1A G325D", -0.338]
]}

---

Test system: FLX1 + dox-induced PRKAR1A G325D
experimentSummary: difference in log2 fold change of viability vs plate median (dox-induced PRKAR1A G325D minus uninduced); higher = compound less effective when PKA is inhibited
measurementParameters: concentration: not stated (2 or 5 uM); 5 days
Structures can show the parent of a compound that is named as a salt.
Lab note: cut-off is -0.1. Strictly less in difference in log2 fold change of viability is true. Exactly -0.1 or more is false.

{"columns": ["compound", "groupLabel"],
 "data": [
  ["C[C@@H](NC(=O)c1ncnc(N)c1Cl)c1ncc(C(=O)Nc2cc(C(F)(F)F)c(Cl)cn2)s1", "true"],
  ["Cc1cc(Nc2nc(N[C@@H](C)c3ncc(F)cn3)ncc2Cl)[nH]n1", "true"],
  ["C#Cc1cccc(Nc2ncnc3cc(OCCOC)c(OCCO)cc23)c1", "true"],
  ["CNC(=O)c1ccccc1Sc1ccc2c(/C=C/c3ccccn3)n[nH]c2c1 [Axitinib]", "true"],
  ["CNC(=O)c1cc(COc2nnc(Nc3ccc(Cl)cc3)c3ccoc23)ccn1 [Telatinib]", "false"],
  ["C[C@@H]1COC(Nc2ccc3ncnc(Nc4ccc(OCc5nccs5)c(Cl)c4)c3c2)=N1 [Varlitinib]", "true"],
  ["c1cncc(CN2CCC(n3ncc4c(N5CCOCC5)nc(-c5ccc6[nH]ccc6c5)nc43)CC2)c1", "true"],
  ["C[C@@H]1CN(CC(=O)Nc2ccc3c(c2)Cc2cccc(-c4cc(=O)cc(N5CCOCC5)o4)c2S3)C[C@H](C)O1", "false"],
  ["Cc1cc(C(C)Nc2ccccc2)c2nc(N3CCOCC3)cc(=O)n2c1 (centres undefined)", "false"],
  ["Nc1cc(C(F)(F)F)c(-c2cc(N3CCOCC3)nc(N3CCOCC3)n2)cn1 [Buparlisib (BKM120, NVP-BKM120)]", "false"],
  ["CN(C)Cc1cccc(N=C(c2ccccc2)c2c(O)[nH]c3cc(C(=O)N(C)C)ccc23)c1", "false"],
  ["CN1CC[C@H](c2c(O)cc(O)c3c(=O)cc(-c4ccccc4Cl)oc23)[C@H](O)C1 [Flavopiridol HCl]", "false"],
  ["CSc1cccc(Nc2ncc3cc(-c4c(Cl)cccc4Cl)c(=O)n(C)c3n2)c1", "false"],
  ["O=C(O)c1ccc(Nc2ncc3c(n2)-c2ccc(Cl)cc2C(c2c(F)cccc2F)=NC3)cc1", "false"],
  ["Oc1ccc(Nc2nc(-c3ccc(Cl)cc3)cs2)cc1", "true"],
  ["CN(C)CCOc1ccc(-c2nc(-c3ccncc3)c(-c3ccc4c(c3)CC/C4=N\\O)[nH]2)cc1", "true"],
  ["Cn1c(=O)c(F)c(Nc2ccc(I)cc2F)c2c(=O)n(C[C@@H](O)CO)cnc21", "true"]
]}

---

Test system: FLX1 + dox-induced PRKAR1A G325D
experimentSummary: difference in log2 fold change of viability vs plate median (dox-induced PRKAR1A G325D minus uninduced); higher = compound less effective when PKA is inhibited
measurementParameters: concentration: not stated (2 or 5 uM); 5 days
Structures can show the parent of a compound that is named as a salt.
parameter: difference in log2 fold change of viability

{"columns": ["molecule", "quantitativeResult"],
 "data": [
  ["N#CC[C@H](C1CCCC1)n1cc(-c2ncnc3[nH]ccc23)cn1", 0.145],
  ["O=C(O)[C@]1(Cc2cccc(Nc3nccs3)n2)CC[C@@H](Oc2cccc(Cl)c2F)CC1", -0.795],
  ["COc1ccc(-c2ccc3ncc4c(c3c2)n(-c2ccc(N3CCNCC3)c(C(F)(F)F)c2)c(=O)n4C)cn1", 0.174],
  ["CNC(=O)c1cc(Oc2ccc(NC(=O)Nc3ccc(Cl)c(C(F)(F)F)c3)cc2)ccn1 [Sorafenib]", 0.0478],
  ["COc1cc2nccc(Oc3ccc(NC(=O)NC4CC4)c(Cl)c3)c2cc1C(N)=O [Lenvatinib (E7080)]", -0.0902],
  ["N#C/C(=C\\c1ccc(O)c(O)c1)C(=O)NCc1ccccc1", -0.0065],
  ["Cc1[nH]c(/C=C2\\C(=O)Nc3ccc(S(=O)(=O)Cc4c(Cl)cccc4Cl)cc32)c(C)c1C(=O)N1CCC[C@@H]1CN1CCCC1", -0.266],
  ["COC(=O)c1ccc2c(c1)NC(=O)/C2=C(\\Nc1ccc(N(C)C(=O)CN2CCN(C)CC2)cc1)c1ccccc1", -4.27],
  ["Nc1nc(Nc2ccc(S(N)(=O)=O)cc2)nn1C(=O)c1c(F)cccc1F", 0.0351],
  ["CN1CC[C@H](c2c(O)cc(O)c3c(=O)cc(-c4ccccc4Cl)oc23)[C@H](O)C1 [Flavopiridol (Alvocidib)]", 0.251],
  ["CNC(=O)c1cc(Oc2ccc(NC(=O)Nc3ccc(Cl)c(C(F)(F)F)c3)c(F)c2)ccn1", -0.347],
  ["CC[C@H](CO)Nc1nc(NCc2ccccc2)c2ncn(C(C)C)c2n1 [Roscovitine (Seliciclib,CYC202)]", 0.0426],
  ["Nc1nccc(Oc2ccc(NC(=O)c3c[nH]cc(-c4ccc(F)cc4)c3=O)cc2F)c1Cl", -0.00105],
  ["COc1cc2c(c(OC)c1OC)-c1c(cc3c(c1OC)OCO3)CC(C)C(C)C2 (stereo not given) [Schisandrin B (Sch B)]", 0.277],
  ["O=c1cc(-c2cccc3c2Sc2ccccc2S3)oc(N2CCOCC2)c1", 0.329],
  ["CCOc1ccn(-c2ccc(F)cc2)c(=O)c1C(=O)Nc1ccc(Oc2ccnc(N)c2Cl)c(F)c1", 0.114],
  ["C=CC(=O)Nc1cccc(Sc2nc(Nc3ccc(N4CCN(C)CC4)cc3)ncc2Cl)c1", 0.0442],
  ["Cc1nc(NC(=O)N2CCC[C@H]2C(N)=O)sc1-c1ccnc(C(C)(C)C(F)(F)F)c1", 0.385],
  ["CCC(=O)Nc1cccc(Oc2nc(Nc3ccc(N4CCN(C)CC4)cc3OC)ncc2Cl)c1", -0.831],
  ["CN1CCN(c2ccc3nc(-c4c(N)c5c(F)cccc5[nH]c4=O)[nH]c3c2)CC1 [Dovitinib (TKI-258, CHIR-258)]", 0.0764],
  ["O=C(Nc1cccc(Cl)c1)Nc1ncc(CCNc2ncnc3ccsc23)s1 [SNS-314 Mesylate]", -0.153],
  ["COc1cc(Nc2ncc(F)c(Nc3ccc4c(n3)NC(=O)C(C)(C)O4)n2)cc(OC)c1OC [R406 (free base)]", -0.334],
  ["Cc1ccc(S(=O)(=O)/C=C/C#N)cc1", -0.118],
  ["N[C@@H]1CCCN(c2c(/C=C3\\SC(=O)NC3=O)cccc2-c2ccccc2)C1", 0.132],
  ["CN1CCN(c2nc(C3=C(c4c[nH]c5ccccc45)C(=O)NC3=O)c3ccccc3n2)CC1", -0.157],
  ["Cc1cc(Nc2cc(CN3CCOCC3)c3nc(C)c(Cc4ccc(Cl)cc4F)n3n2)n[nH]1", -1.14],
  ["CN1CCN(c2cccc(Nc3nc4c(-c5ccc(S(C)(=O)=O)cc5)cccn4n3)c2)CC1", -0.93],
  ["C=CC(=O)Nc1ccc2ncnc(Nc3cccc(Br)c3)c2c1", -0.936],
  ["C[C@]1(O)C[C@@H](c2nc(-c3ccc4ccc(-c5ccccc5)nc4c3)c3c(N)nccn32)C1", 0.468],
  ["O=S(=O)(NCCNC/C=C/c1ccc(Br)cc1)c1cccc2cnccc12", -0.243],
  ["O=C1NC(=O)C(c2ccccc2[N+](=O)[O-])=C1Nc1ccc(O)c(Cl)c1", -0.00686],
  ["Oc1c2ccccc2c2c3c(cccc13)N=N2", 0.149],
  ["Cn1sc(=O)n(Cc2ccccc2)c1=O", 0.221],
  ["NC(=O)Nc1cc(-c2cccc(F)c2)sc1C(=O)N[C@H]1CCCNC1", -0.12],
  ["CS(=O)(=O)N1CCc2c(-c3cnc(N)nc3)nc(N3CCOCC3)nc21", 0.207]
]}
